# Assay remarks: The drug is tested on Anaerotruncus colihominis strain: DSM17241 for biotransformation. The drug concentrations were measured before and after a 12-h incubation by liquid-chromatography-coupled mass spectrometry (LC–MS)
# Particulars: 2 µM
Property name: Bacterial Biotransformation

- N#Cc1ccc2c(c1)N(CCCN1CCC(O)CC1)c1ccccc1S2 [PERICIAZINE]: Compound NOT metabolized
- CN(C(=O)CN(CCO)CC(=O)N(C)C(C)(C)Cc1ccccc1)C(C)(C)Cc1ccccc1 [OXETHAZAINE]: Compound NOT metabolized
- Nc1ccc(/N=N/c2ccccc2)c(N)n1 [PHENAZOPYRIDINE]: Compound metabolized
- Cc1nc2n(c(=O)c1CCN1CCC(c3noc4cc(F)ccc34)CC1)CCCC2O (centres undefined) [PALIPERIDONE]: Compound metabolized

---

# Assay remarks: The drug is tested on Parabacteroides merdae strain: ATCC43184 for biotransformation. The drug concentrations were measured before and after a 12-h incubation by liquid-chromatography-coupled mass spectrometry (LC–MS)
# Particulars: 2 µM
Property name: Bacterial Biotransformation

Before answering, review these 5 worked examples.
- CC(C)c1nc(CN(C)C(=O)N[C@H](C(=O)N[C@@H](Cc2ccccc2)C[C@H](O)[C@H](Cc2ccccc2)NC(=O)OCc2cncs2)C(C)C)cs1: Compound NOT metabolized
- CN(CCOc1ccc(CC2SC(=O)NC2=O)cc1)c1ccccn1.O=C(O)/C=C\C(=O)O (stereo not drawn) [ROSIGLITAZONE MALEATE]: Compound NOT metabolized
- O=C(O)COCCN1CCN(C(c2ccccc2)c2ccc(Cl)cc2)CC1 (stereo not drawn): Compound NOT metabolized
- CN1CCN2c3ccccc3Cc3ccccc3C2C1 (stereo not drawn): Compound NOT metabolized
- Br.CN1CCC[C@@H]1Cc1c[nH]c2ccc(CCS(=O)(=O)c3ccccc3)cc12 [ELETRIPTAN HYDROBROMIDE]: Compound NOT metabolized

Consider the compound CC(C)(C)NC[C@H](O)COc1nsnc1N1CCOCC1.O=C(O)/C=C\C(=O)O [TIMOLOL MALEATE] and give its recorded Bacterial Biotransformation.
Compound NOT metabolized

Consider the compound CN1CCC(=C2c3ccccc3CC(=O)c3sccc32)CC1.O=C(O)/C=C/C(=O)O [KETOTIFEN FUMARATE] and give its recorded Bacterial Biotransformation.
Compound NOT metabolized

---

# Assay remarks: The drug is tested on Bacteroides xylanisolvens strain: DSM18836 for biotransformation. The drug concentrations were measured before and after a 12-h incubation by liquid-chromatography-coupled mass spectrometry (LC–MS)
# Particulars: 2 µM
Property name: Bacterial Biotransformation

Before answering, review these 5 worked examples.
• CCc1nc(N)nc(N)c1-c1ccc(Cl)cc1 = Compound NOT metabolized
• COc1cc(NC(C)CCCN)c2ncccc2c1.O=P(O)(O)O.O=P(O)(O)O (stereo not given) [PRIMAQUINE PHOSPHATE] = Compound metabolized
• CN(CCOc1ccc(CC2SC(=O)NC2=O)cc1)c1ccccn1.O=C(O)/C=C\C(=O)O (stereo not given) [ROSIGLITAZONE MALEATE] = Compound NOT metabolized
• CC(=O)O[C@]1(C(C)=O)CC[C@H]2[C@@H]3C=C(C)C4=CC(=O)CC[C@]4(C)[C@H]3CC[C@@]21C [MEGESTROL ACETATE] = Compound metabolized
• CCN(CC)CCNC(=O)c1cc(Cl)c(N)cc1OC [METOCLOPRAMIDE] = Compound NOT metabolized

Consider the molecule CN1CCN(C2=Nc3ccccc3Oc3ccc(Cl)cc32)CC1.O=C(O)CCC(=O)O [LOXAPINE SUCCINATE] and give its recorded Bacterial Biotransformation.
Compound NOT metabolized

Consider the molecule O=C1C(CC[S+]([O-])c2ccccc2)C(=O)N(c2ccccc2)N1c1ccccc1 (stereo not given) and give its recorded Bacterial Biotransformation.
Compound metabolized

Consider the molecule "C[C@]12C=CC(=O)C=C1CC[C@@H]1[C@@H]2C(=O)C[C@@]2(C)[C@H]1CC[C@]2(O)C(=O)CO" and give its recorded Bacterial Biotransformation.
Compound NOT metabolized

Consider the molecule CS(=O)(=O)O.O.O.O.O=C1Cc2cc(CCN3CCN(c4nsc5ccccc45)CC3)c(Cl)cc2N1 [ZIPRASIDONE MESYLATE] and give its recorded Bacterial Biotransformation.
Compound NOT metabolized

Consider the molecule "CCCCC(=O)N(Cc1ccc(-c2ccccc2-c2nnn[nH]2)cc1)[C@H](C(=O)O)C(C)C" and give its recorded Bacterial Biotransformation.
Compound metabolized
